Recorded values, source patent US8288435B2.

# IC50 annotations
target: human orexin-1 receptor (Homo sapiens, UniProt O43613); assay: Intracellular calcium measurements (FLIPR), orexin receptor antagonistic activity, OX1; details: CHO cells expressing the human orexin-1 receptor, 10 nM orexin-A as agonist
Sequence (O43613 whole entry): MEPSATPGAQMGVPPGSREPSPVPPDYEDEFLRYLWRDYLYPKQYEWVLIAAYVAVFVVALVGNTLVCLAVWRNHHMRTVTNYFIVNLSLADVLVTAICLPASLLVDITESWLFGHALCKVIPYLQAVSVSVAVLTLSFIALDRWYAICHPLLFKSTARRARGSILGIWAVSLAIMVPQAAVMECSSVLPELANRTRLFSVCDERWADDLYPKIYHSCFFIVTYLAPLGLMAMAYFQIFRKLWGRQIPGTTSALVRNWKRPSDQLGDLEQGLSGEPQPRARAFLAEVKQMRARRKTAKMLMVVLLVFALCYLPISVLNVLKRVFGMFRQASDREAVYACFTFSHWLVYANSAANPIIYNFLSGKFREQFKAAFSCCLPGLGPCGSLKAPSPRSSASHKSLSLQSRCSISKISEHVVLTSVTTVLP
Please respond with the number in µM and leave the unit unwritten.

// known answers, use as guide
Cc1cccc(-c2sc(N)nc2C(=O)N2[C@H](CNC(=O)c3c(C)noc3C)C[C@@H]3C[C@@H]32)c1	0.129
Cc1nc(C(=O)N2[C@H](CNC(=O)c3nccc4ccccc34)C[C@@H]3C[C@@H]32)c(-c2cccc(F)c2)s1	0.104
CCn1cc(C(=O)NC[C@@H]2C[C@@H]3C[C@@H]3N2C(=O)c2nc(C)sc2-c2cccc(C)c2)c(C)n1	0.042
Cc1nc(C(=O)N2[C@H](CNC(=O)c3cccc4cccnc34)C[C@@H]3C[C@@H]32)c(-c2ccccc2)s1	0.013

Continue with the next molecule.
So what's the measured IC50 for this one? "Nc1nc(C(=O)N2[C@H](CNC(=O)c3cccc4c3OCCO4)C[C@@H]3C[C@@H]32)c(-c2cccc(F)c2)s1"
0.08
